# credit: patent US6482921B1

Test system: Escherichia Coli MC 4100
experiment-summary: MIC broth microdilution, E. coli MC 4100 (wild type)
Assay type: cell-based
test-conditions: E. coli MC 4100
So I've got a bunch of molecules here, and I need their MIC (μg/ml) Broth microdilution values.
Express it in µg/mL; write the number only.

# get_value(readout='MIC (μg/ml) Broth microdilution', item= CC(C)CC(N)C(=O)N(C)C(C)C(NC(=O)C(Cc1ccc(F)cc1)NC(=O)NC(Cc1ccc(O)cc1)C(=O)O)C(=O)NCC1CC(O)C(n2ccc(=O)[nH]c2=O)O1 (centres unmarked) [Compound 107] )
16

Then what about the molecule CC(C(NC(=O)C(Cc1ccccc1)NC(=O)NC(Cc1ccc(O)cc1)C(=O)O)C(=O)NCC1CC(O)C(n2ccc(=O)[nH]c2=O)O1)N(C)C(=O)CN (centres unmarked) [Compound 102] ?
512

Then what about the molecule CC(C(NC(=O)C(Cc1ccc(F)cc1)NC(=O)NC(Cc1c[nH]c2ccccc12)C(=O)O)C(=O)NCC1CC(O)C(n2ccc(=O)[nH]c2=O)O1)N(C)C(=O)C(N)Cc1ccc(F)cc1 (centres unmarked) [Compound 118] ?
512
